Hello, the source for this data is PubChem BioAssay AID743162, in case you need it.

test system: Mycobacterium tuberculosis replicating, CFU count, imaging; experiment: growth inhibition of replicating M. tuberculosis, dose response, CFU by imaging, dry powder, 7108-01 (AID 743162); conditions: CFU at 10 uM; at 10 µM; stronger effect = lower value
VALUE KIND: CFU count

{"columns": ["MOLECULE", "VALUE KIND", "OBSERVED"],
 "data": [
  ["CCOC(=O)c1cc(COc2c(Cl)cccc2Cl)on1", "CFU count", "1.85e+09"],
  ["COc1ccc(CNC(=O)Nc2ncc([N+](=O)[O-])s2)cc1", "CFU count", "1.24e+09"],
  ["COc1ccc(CCNc2cc(-c3ccccc3)nc3ncnn23)cc1", "CFU count", "1.18e+09"],
  ["CCOc1ccc(OC(=O)c2ccc3c(=O)n4c(nc3c2)CCC4)cc1", "CFU count", "1.36e+09"],
  ["CSc1nsc(SCc2ccc(C(=O)Nc3cccc(C)c3)cc2)n1", "CFU count", "-1.9e+09"]
]}

// CFU count value for COC(=O)C(C)Oc1ccc2cc(-c3ccccc3)c(=O)oc2c1 (centres undefined) : 2.01e+09

// CFU count value for CCC(C)n1nnc2c(=O)oc3ccccc3c21 (centres undefined) : 8.38e+08

// CFU count value for c1ccc(-c2n[nH]c(-c3ccccn3)n2)nc1 : 1.06e+09

// CFU count value for Cn1c(NC(=O)c2ccccc2)nc2ccccc21 : 1.98e+09
